Sourced from patent US8815840B2

Values of IC50 reported for JAK2 (Homo sapiens (Human), UniProt O60674) appear below.
READOUT NAME: IC50 (nM)

>  <SUBSTANCE SMILES>
NC(=O)c1cc(-c2ccc(Cl)c(Cl)c2)cc2c1[nH]c1ccc(C(=O)NCCN3CCOCC3)cc12

>  <NUMERIC READOUT>
6

$$$$
>  <SUBSTANCE SMILES>
NC(=O)c1cc(-c2ccc(N3CCOCC3)nc2)nc2c1[nH]c1cc(N3CCOCC3)ccc12

>  <NUMERIC READOUT>
1

$$$$
>  <SUBSTANCE SMILES>
CN(C)C(=O)c1ccc(-c2cc(C(N)=O)c3[nH]c4cc(C(=O)N5CCOCC5)ccc4c3c2)cc1

>  <NUMERIC READOUT>
286

$$$$
>  <SUBSTANCE SMILES>
Cc1cc(-c2cc(C(N)=O)c3[nH]c4cc(C5CCN(C(=O)OC(C)(C)C)CC5)ccc4c3c2)ccc1CN1CCOCC1

>  <NUMERIC READOUT>
818

$$$$
>  <SUBSTANCE SMILES>
NC(=O)c1cc(-c2cccc(Cl)c2)cc2c1[nH]c1ccc(C(=O)N3CCOCC3)cc12

>  <NUMERIC READOUT>
1

$$$$
>  <SUBSTANCE SMILES>
NC(=O)c1cc(-c2cnc(N3CCOCC3)nc2)cc2c1[nH]c1cc(C(=O)N3CCOCC3)ccc12

>  <NUMERIC READOUT>
108

$$$$
>  <SUBSTANCE SMILES>
COC(=O)c1cccc2[nH]c3c(C(N)=O)cc(-c4cccc(OC)c4)cc3c12

>  <NUMERIC READOUT>
110

$$$$

---

Measured pIC50 (JAK2 (Homo sapiens (Human), UniProt O60674))
pIC50: −log10 of the molar value.

>  <COMPOUND>
N#Cc1cc(-c2cc(C(N)=O)c3[nH]c4cc(C(=O)N5CCOCC5)ccc4c3c2)ccc1F [Example 563]

>  <pIC50>
6.00

$$$$
>  <COMPOUND>
Cn1ccc2cc(-c3cc(C(N)=O)c4[nH]c5cc(C(=O)N6CCOCC6)ccc5c4n3)ccc21 [Example 448]

>  <pIC50>
9.00

$$$$
>  <COMPOUND>
COc1cc(-c2cc(C(N)=O)c3[nH]c4ccc(C(=O)N5CCOC(CO)C5)cc4c3c2)cc(OC)c1OC (stereo not shown) [Example 183]

>  <pIC50>
6.80

$$$$
>  <COMPOUND>
NC(=O)c1cc(-c2ccc(OC(F)(F)F)cc2)cc2c1[nH]c1cc(C(=O)N3CCOCC3)ccc12 [Example 151]

>  <pIC50>
8.22

$$$$
